assayed.target: uterine OT receptors (Rattus norvegicus)
Construct: from tissue; host or cells: uterus of DES-treated rats, crude membranes
Sequence (P70536 1-388): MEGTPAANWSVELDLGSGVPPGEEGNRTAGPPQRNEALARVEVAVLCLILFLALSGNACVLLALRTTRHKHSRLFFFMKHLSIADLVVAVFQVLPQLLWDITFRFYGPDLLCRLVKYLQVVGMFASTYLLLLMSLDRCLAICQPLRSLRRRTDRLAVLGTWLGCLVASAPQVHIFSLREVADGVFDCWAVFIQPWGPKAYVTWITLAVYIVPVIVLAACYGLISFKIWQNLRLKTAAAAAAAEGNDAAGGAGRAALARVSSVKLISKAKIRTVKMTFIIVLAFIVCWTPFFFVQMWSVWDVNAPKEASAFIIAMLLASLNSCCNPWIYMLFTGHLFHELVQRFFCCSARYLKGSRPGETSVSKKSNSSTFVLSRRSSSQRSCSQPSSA
assay.comment: [^3 H]OT binding to uterine OT receptors, crude membrane preparation of uteri from DES-treated rats
run.parameters: rat uterus membranes, 1 nM [^3 H]OT; read-out: Receptor Binding Results IC50 (nM) [^3 H]OT
Numbered stars: 1 amine (or outer) side, 2 acyl side, 3 side chain; on linkers, the order of the positions; unused ones are H or OH. Square brackets hold non-standard residues; d marks the D form. Peptide text beside a SMILES is read from it. dPip(4-aza,4-Cbz) = O=C(O)[C@H]1CN(C(=O)OCc2ccccc2)CCN1; X2 = O=C(OCc1ccccc1)N1CCN([*:1])[C@H](C(=O)[*:2])C1; X5 = CC(C)(C)OC(=O)CN1CCN([*:1])[C@H](C(=O)[*:2])C1; dPiz(1,6-dehydro) = O=C(O)[C@H]1CCC=NN1; X6 = O=C([C@H]1CCCNN1[*:1])[*:2]; dNMeF = CN[C@H](Cc1ccccc1)C(=O)O; Pip = O=C(O)[C@@H]1CCCCN1; dPip = O=C(O)[C@H]1CCCCN1; dNMeA = CN[C@H](C)C(=O)O
Recorded IC50 for the following compounds
parameter: IC50 (nM)

compound: CC[C@H](C)[C@@H]1NC(=O)[C@@H](Cc2ccccc2)NC(=O)[C@@H]2CCCN2C(=O)[C@@H](Cc2ccccc2)N(C)C(=O)[C@@H]2CCCCN2C(=O)[C@H]2CCCNN2C1=O [Example 111] (cyclo(I[X6][Pip][dNMeF]P[dF]))
assayed.target: uterine OT receptors (Rattus norvegicus)
parameter: IC50
limit.qualifier: =
reading: 111
--
compound: CC[C@H](C)[C@@H]1NC(=O)[C@@H](Cc2c[nH]c3ccccc23)NC(=O)[C@@H]2CCCN2C(=O)[C@@H](Cc2ccccc2)N(C)C(=O)[C@@H]2CN(CC(=O)OC(C)(C)C)CCN2C(=O)[C@H]2CCCCN2C1=O [Example 180] (cyclo([dW]I[dPip][X5][dNMeF]P))
assayed.target: uterine OT receptors (Rattus norvegicus)
parameter: IC50
limit.qualifier: =
reading: 150
--
compound: CC[C@H](C)[C@@H]1NC(=O)[C@@H](Cc2ccccc2)NC(=O)[C@@H]2CCCN2C(=O)[C@@H](Cc2cnc[nH]2)NC(=O)[C@@H]2CCCCN2C(=O)[C@H]2CCCCN2C1=O [Example 3] (cyclo(I[dPip][Pip][dH]P[dF]))
assayed.target: uterine OT receptors (Rattus norvegicus)
parameter: IC50
limit.qualifier: =
reading: 88
--
compound: CC[C@H](C)[C@@H]1NC(=O)[C@@H](Cc2ccccc2)NC(=O)[C@@H]2CCCN2C(=O)[C@@H](Cc2ccccc2)N(C)C(=O)[C@@H](C)N(C)C(=O)[C@H]2CCCCN2C1=O [Example 6] (cyclo([dF]I[dPip][dNMeA][dNMeF]P))
assayed.target: uterine OT receptors (Rattus norvegicus)
parameter: IC50
limit.qualifier: =
reading: 1800
--
compound: CC[C@H](C)[C@@H]1NC(=O)[C@@H](Cc2ccccc2)NC(=O)[C@@H]2CCCN2C(=O)[C@@H]([C@H](C)O)NC(=O)[C@@H]2CCCN2C(=O)[C@H]2CCCN2C1=O [Example 62] (cyclo([dT]P[dF]I[dP]P))
assayed.target: uterine OT receptors (Rattus norvegicus)
parameter: IC50
limit.qualifier: >
reading: 1000
--
compound: CC[C@H](C)[C@@H]1NC(=O)[C@@H](Cc2ccccc2)NC(=O)[C@@H]2CCCN2C(=O)[C@@H](Cc2ccccc2)NC(=O)[C@H]2CN(C(=O)OCc3ccccc3)CCN2C(=O)[C@H]2CCCCN2C1=O [Example 76] (cyclo(I[dPip][dPip(4-aza,4-Cbz)][dF]P[dF]))
assayed.target: uterine OT receptors (Rattus norvegicus)
parameter: IC50
limit.qualifier: =
reading: 460
--
compound: CC[C@H](C)[C@@H]1NC(=O)[C@@H](Cc2c[nH]c3ccccc23)NC(=O)[C@@H]2CCCN2C(=O)[C@@H](Cc2ccccc2)N(C)C(=O)[C@@H]2CN(C(=O)OCc3ccccc3)CCN2C(=O)[C@H]2CCC=NN2C1=O [Example 168] (cyclo(I[dPiz(1,6-dehydro)][X2][dNMeF]P[dW]))
assayed.target: uterine OT receptors (Rattus norvegicus)
parameter: IC50
limit.qualifier: =
reading: 34
--
compound: CC[C@H](C)[C@@H]1NC(=O)[C@@H](Cc2c[nH]cn2)NC(=O)[C@@H]2CCCN2C(=O)[C@@H](Cc2ccccc2)N(C)C(=O)[C@@H]2CCCCN2C(=O)[C@H]2CCCCN2C1=O [Example 4] (cyclo(I[dPip][Pip][dNMeF]P[dH]))
assayed.target: uterine OT receptors (Rattus norvegicus)
parameter: IC50
limit.qualifier: >
reading: 10000
